# Tested on: MS2 coat protein
# protocol-details: apparent KD of MS2 coat protein; higher = weaker reporter binding
# measurement-context: Eterna round: R107; input ligand: none
I would appreciate it if you labelled entries Yes when apparent KD of MS2 coat protein is 60 nM or higher, otherwise No.

AGAUGUAGCGGAAGGAGCGUCAUGAGGAUCACCCAUGACUCCCGUUGUGGGAGUUCCUUAGGUCAGGUAGGUCGCCGUUACGUCA [Omei Arg B SS B v5]	Yes

Determine whether this sequence has apparent KD of MS2 coat protein no lower than 60 nM: `GGACUAACCAGAAGGAGCGGCACGCAGAAACUGCAAUUUCCUCCGCACGAGGAUCACCCGUGUCAGGUAGGUCGCUGGUUAGUCG`
No

Determine whether this sequence has apparent KD of MS2 coat protein no lower than 60 nM: GGCCCUGCGGGCGCCCGCAGGGCCGCGGAUACCAGCGAGGUCCAUCGCCCUUGGCAGCCGAACAUGAGGAUCACCCAUGUCGGUG [Same State - Theophylline A Attempt #8 (HarryS)]
No

Determine whether this sequence has apparent KD of MS2 coat protein no lower than 60 nM: CCCAGUCAUAGCAAAGCAAAUAUACUCGAAGGAGCGUCAUAGUAGGCAGGUAGGUCGCGAGACAUGAGGAUCACCCAUGUAGAGA [ooomullin]
No

* * *

# Test system: K4 kissing-loop RNA reporter;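 further: bound reporter read as fluorescence of individual clusters on recovered sequencing chips by microscopy, with normalized cluster intensities fitted with a binding model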
# protocol-details: apparent KD of K4 kissing-loop reporter; higher = weaker reporter binding
# measurement-context: Eterna round: R107; input ligand: none
I would appreciate it if you labelled entries MET when apparent KD of K4 kissing-loop reporter is 300 nM or higher, otherwise NOT MET.

GGCGGCCGCGCGAAAGCGCGGCCGGCCGAUACCAGCGCGCCGGCGCGCCCUUGGCAGCGGCGCCGAGUGAUGUUCGGCCUGCCGU [#2 Same State - Theophylline A Attempt #12 (HarryS)]	NOT MET
UCCUGCAAUCGUCCACGAAAGUGGAUCGAUACCAGAGUCGAAAGACUCCCUUGGCAGCGAGUGAUGUUCGAAGCAGGUAAAUAAA	MET
AGAGUUAUAUGAGGAUAUGGGAUAGUAAAUGAGUGAGUUAUAGUGUAGUUUGUUUAGUGAUGUUAUUUAGAAGGCGUGAGUGAUG [dgnnmullin]	NOT MET
GUUAAAUAAAUGGGCAUAGUGAUGUUGUGUCGAGGACCGGUACGGCCGCCACUCGAGCUAGCAUGCCGGUCAUUAUGGGUAGUUU [theeternabot_exclusion_KL_Trp_A_46]	NOT MET

Determine whether this sequence has apparent KD of K4 kissing-loop reporter no lower than 300 nM: UGGGUGUAGUGAUGUUAUAUAGAGAGUGAUACCAGUUUAGAGAAGAACCCUUGGCAGCAUAGAAGAGUAUCAUUGGAGAAGAAUG [ExTheophyl.As]
MET

Determine whether this sequence has apparent KD of K4 kissing-loop reporter no lower than 300 nM: UGGAGUUGACGAAAAGUCAACUCCUGAGAAGGAGCGGACGAAAGUCCAGGUAGGUCGCUCACUACCAGUGAUGUUGGUAAUUCAA [#OpenEnded 3]
NOT MET

Determine whether this sequence has apparent KD of K4 kissing-loop reporter no lower than 300 nM: AUGACGGGUAGUGAUGUUAUCCACGAUGGGAAGGAUAUCAACCGUGUGAGAAGGUCCUUAUCGGUGCGGCACAUGCAGGUACUAC [theeternabot_sameState_KL_FMN_A_41]
MET

Determine whether this sequence has apparent KD of K4 kissing-loop reporter no lower than 300 nM: AACUCUCAGACACUUGAGUGAUGUUCAGGCCGAGGACCGGUACGGCCGCCACUCGGGUCUGAGAGAGGUUAUCAAAGAUAGCCAA [Omei KL Tryp A SS A v5]
NOT MET
